- Target: Heat shock protein HSP90 (Homo sapiens, UniProt P07900+P08238)
- Procedure Summary: Inhibition of Hsp90 by recombinant ATPase assay
- Format: functional
# Lookup of reported IC50 keyed by entry
Kindly provide the numeric value in µM only, without the unit symbol.

{"Compound": "O=S(=O)(Nc1ccc(Cl)cc1O)c1ccccc1", "Target": "Heat shock protein HSP90 (Homo sapiens, UniProt P07900+P08238)", "IC50, µM": 2}

Query: So what's the measured IC50 for this one? O=C1CC(Nc2ccc(N3CCOCC3)cc2)C(=O)N1Cc1ccccc1 (stereo unspecified)
Response: 1.9

Query: Please answer likewise for CC1(C)CC2=Nc3ccccc3NC(c3cccc(O)c3O)C2=C(O)C1 (stereo unspecified)
Response: 2.7

Query: Same question for Cc1nc(N)sc1-c1csc(Nc2ccccn2)n1 please.
Response: 7

Query: Thanks! And COc1cccc(C(=O)Nc2ccc(O)c(C)c2)c1 ?
Response: 2.5

Query: Ok, now Cc1cc(O)nc(SCC(=O)c2ccc(O)c(O)c2)n1
Response: 2.3
